All figures here come from ChEMBL document CHEMBL4393656.

tested on: Escherichia coli; experiment: Growth inhibition of Escherichia coli ATCC 25922 incubated for 18 hrs; format: organism-based
MIC by entry:

# count of solved cases: 3
- TEST_SMILES: "CC(C)CCOc1ccccc1-c1ccccc1OCc1cn([C@H](CCCCN)C(=O)NCCc2ccccc2)nn1.Cl"
  TESTED_ON: "Escherichia coli"
  MIC: "> 32 µg/mL"
- TEST_SMILES: "CC(C)CCOc1ccccc1-c1ccccc1OCc1cn([C@H](CCCNC(=N)N)C(=O)N[C@H](CCCCN)Cn2cc(CCc3ccccc3)nn2)nn1.Cl.Cl"
  TESTED_ON: "Escherichia coli"
  MIC: "16 µg/mL"
- TEST_SMILES: "CC(C)CCOc1ccc2ccccc2c1-c1c(OCc2cn([C@H](CCCNC(=N)N)C(=O)N[C@H](CCCCN)Cn3cc(CCc4ccccc4)nn3)nn2)ccc2ccccc12.Cl.Cl"
  TESTED_ON: "Escherichia coli"
  MIC: "> 32 µg/mL"

Let's switch to this compound now.
Query: Can you share its MIC? I mean this compound: `CC(C)CCOc1ccc2ccccc2c1-c1c(OCC(=O)N[C@H](CCCNC(=N)N)C(=O)NCc2ccccc2)ccc2ccccc12.Cl`
Response: > 32 µg/mL
